# ASSAY SYSTEM: GST-Co-NF-kB (Capsaspora owczarzaki, UniProt F1ARL5 200-546)
# Sequence: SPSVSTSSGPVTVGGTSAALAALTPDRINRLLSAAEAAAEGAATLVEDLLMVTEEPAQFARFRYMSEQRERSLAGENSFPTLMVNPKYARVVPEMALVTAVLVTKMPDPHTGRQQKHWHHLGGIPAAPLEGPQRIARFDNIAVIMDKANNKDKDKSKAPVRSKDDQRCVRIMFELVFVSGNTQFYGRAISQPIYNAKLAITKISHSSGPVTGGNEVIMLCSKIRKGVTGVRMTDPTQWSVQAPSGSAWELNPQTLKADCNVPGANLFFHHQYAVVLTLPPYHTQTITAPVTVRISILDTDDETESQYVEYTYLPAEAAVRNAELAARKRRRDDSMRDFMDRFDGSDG
# METHOD SUMMARY: protein-binding microarray (PBM); PBM: ~300 nM protein, 6 mM HEPES pH 7.8, 80 mM KCl, 0.5 mM EDTA, 0.5 mM EGTA, 6% glycerol, 35 ng/ul poly-dIdC, 1% milk, 1 h, room temperature; high values mean tight binding
# ASSAY CONDITIONS: dsDNA, one strand shown
Binary classification by binding signal, with 4 z-score as an inclusive lower bound for Satisfied; all other cases are Not satisfied.

[
  {
    "RESIDUE SEQUENCE": "CCGATTAACATCAGGGGATTAACTGATGTTAATCGGGTCTTGATTCGCTTGACGCTGCTG",
    "ASSIGNED LABEL": "Not satisfied"
  },
  {
    "RESIDUE SEQUENCE": "CCGATTAACATCAAATTACCCCCTGATGTTAATCGGGTCTTGATTCGCTTGACGCTGCTG",
    "ASSIGNED LABEL": "Satisfied"
  },
  {
    "RESIDUE SEQUENCE": "CCGATTAACATCAAAAGCCCCCATGATGTTAATCGGGTCTTGATTCGCTTGACGCTGCTG",
    "ASSIGNED LABEL": "Not satisfied"
  }
]

Consider now this further sequence.
Record `CCGATTAACATCAGGAGTTCCCCTGATGTTAATCGGGTCTTGATTCGCTTGACGCTGCTG` ; criterion: binding signal no lower than 4 z-score. Met? Satisfied

====

# ASSAY SYSTEM: GST-Hu-p50 (Homo sapiens, UniProt P19838 7-356)
# Sequence (P19838 7-356): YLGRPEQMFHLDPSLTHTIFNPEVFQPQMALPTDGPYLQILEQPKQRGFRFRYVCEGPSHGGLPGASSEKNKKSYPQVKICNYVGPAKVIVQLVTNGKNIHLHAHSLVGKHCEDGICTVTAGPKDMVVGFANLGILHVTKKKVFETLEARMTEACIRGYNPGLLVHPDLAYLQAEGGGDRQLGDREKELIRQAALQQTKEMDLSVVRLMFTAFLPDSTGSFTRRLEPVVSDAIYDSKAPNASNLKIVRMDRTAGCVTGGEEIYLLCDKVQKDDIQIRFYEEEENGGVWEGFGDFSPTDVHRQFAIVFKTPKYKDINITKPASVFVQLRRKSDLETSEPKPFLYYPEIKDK
# METHOD SUMMARY: protein-binding microarray (PBM); PBM: ~300 nM protein, 6 mM HEPES pH 7.8, 80 mM KCl, 0.5 mM EDTA, 0.5 mM EGTA, 6% glycerol, 35 ng/ul poly-dIdC, 1% milk, 1 h, room temperature; high values mean tight binding
# ASSAY CONDITIONS: dsDNA, one strand shown
VALUE KIND: binding signal (z-score)
Numeric answer only, unit z-score assumed.

Examples with their reported binding signal follow.
[
  {
    "RESIDUE SEQUENCE": "CCGATTAACATCACGGGAACTCCTGATGTTAATCGGGTCTTGATTCGCTTGACGCTGCTG",
    "VALUE MEASURED": 1.48
  },
  {
    "RESIDUE SEQUENCE": "CCGATTAACATCACAGCGTGAGGTGATGTTAATCGGGTCTTGATTCGCTTGACGCTGCTG",
    "VALUE MEASURED": 1.16
  },
  {
    "RESIDUE SEQUENCE": "CCGATTAACATCAACCATTCCCCTGATGTTAATCGGGTCTTGATTCGCTTGACGCTGCTG",
    "VALUE MEASURED": 4.88
  },
  {
    "RESIDUE SEQUENCE": "CCGATTAACATCAGGGGGATTAATGATGTTAATCGGGTCTTGATTCGCTTGACGCTGCTG",
    "VALUE MEASURED": 6.36
  }
]

What does the data say about its binding signal? Entry: `CCGATTAACATCAGATTTCCCCATGATGTTAATCGGGTCTTGATTCGCTTGACGCTGCTG` 6.16

What does the data say about its binding signal? Entry: `CCGATTAACATCAAGGAACCCCCTGATGTTAATCGGGTCTTGATTCGCTTGACGCTGCTG` 6.57

What does the data say about its binding signal? Entry: `CCGATTAACATCAATAAATCCCCTGATGTTAATCGGGTCTTGATTCGCTTGACGCTGCTG` 7.71

What does the data say about its binding signal? Entry: `CCGATTAACATCAAGGGGGGGCGTGATGTTAATCGGGTCTTGATTCGCTTGACGCTGCTG` 4.17

What does the data say about its binding signal? Entry: `CCGATTAACATCAAAGAGTCCCCTGATGTTAATCGGGTCTTGATTCGCTTGACGCTGCTG` 5.88

What does the data say about its binding signal? Entry: `CCGATTAACATCAGGGGAAATTATGATGTTAATCGGGTCTTGATTCGCTTGACGCTGCTG` 6.95

What does the data say about its binding signal? Entry: `CCGATTAACATCAGAATTCCCCATGATGTTAATCGGGTCTTGATTCGCTTGACGCTGCTG` 6.62

What does the data say about its binding signal? Entry: `CCGATTAACATCAAAGTCCCCCTTGATGTTAATCGGGTCTTGATTCGCTTGACGCTGCTG` 6.67

What does the data say about its binding signal? Entry: `CCGATTAACATCAAACAGCCCCCTGATGTTAATCGGGTCTTGATTCGCTTGACGCTGCTG` 3.92

====

# ASSAY SYSTEM: GST-Aq-NF-kB (Amphimedon queenslandica, UniProt A9Y5G7 2-389)
# Sequence: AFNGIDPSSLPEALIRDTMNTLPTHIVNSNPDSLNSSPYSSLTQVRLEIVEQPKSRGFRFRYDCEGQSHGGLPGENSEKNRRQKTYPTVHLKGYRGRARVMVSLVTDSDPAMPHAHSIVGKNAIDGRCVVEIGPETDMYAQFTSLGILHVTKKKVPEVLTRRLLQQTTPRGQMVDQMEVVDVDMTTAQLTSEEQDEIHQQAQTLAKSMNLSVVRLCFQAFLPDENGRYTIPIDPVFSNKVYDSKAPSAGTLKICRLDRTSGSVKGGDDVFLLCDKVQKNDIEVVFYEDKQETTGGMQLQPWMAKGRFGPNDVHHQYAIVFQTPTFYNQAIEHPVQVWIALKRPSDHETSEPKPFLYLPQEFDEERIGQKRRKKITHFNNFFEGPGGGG
# METHOD SUMMARY: protein-binding microarray (PBM); PBM: ~300 nM protein, 6 mM HEPES pH 7.8, 80 mM KCl, 0.5 mM EDTA, 0.5 mM EGTA, 6% glycerol, 35 ng/ul poly-dIdC, 1% milk, 1 h, room temperature; high values mean tight binding
# ASSAY CONDITIONS: dsDNA, one strand shown
VALUE KIND: binding signal (z-score)
Numeric answer only, unit z-score assumed.

[
  {
    "RESIDUE SEQUENCE": "CCGATTAACATCAGGGGGTAAAATGATGTTAATCGGGTCTTGATTCGCTTGACGCTGCTG",
    "VALUE MEASURED": 4.16
  },
  {
    "RESIDUE SEQUENCE": "CCGATTAACATCACATTTTTCCCTGATGTTAATCGGGTCTTGATTCGCTTGACGCTGCTG",
    "VALUE MEASURED": 4.26
  }
]

What reported binding signal corresponds to `CCGATTAACATCAAAATCTTCCCTGATGTTAATCGGGTCTTGATTCGCTTGACGCTGCTG` on GST-Aq-NF-kB (Amphimedon queenslandica, UniProt A9Y5G7 2-389)? 5.28

What reported binding signal corresponds to `CCGATTAACATCAGGAATTTCTATGATGTTAATCGGGTCTTGATTCGCTTGACGCTGCTG` on GST-Aq-NF-kB (Amphimedon queenslandica, UniProt A9Y5G7 2-389)? 1.23

What reported binding signal corresponds to `CCGATTAACATCAAACTCCCCCTTGATGTTAATCGGGTCTTGATTCGCTTGACGCTGCTG` on GST-Aq-NF-kB (Amphimedon queenslandica, UniProt A9Y5G7 2-389)? 6.59

What reported binding signal corresponds to `CCGATTAACATCACGTTTTCCCCTGATGTTAATCGGGTCTTGATTCGCTTGACGCTGCTG` on GST-Aq-NF-kB (Amphimedon queenslandica, UniProt A9Y5G7 2-389)? 5.5

What reported binding signal corresponds to `CCGATTAACATCAGAATCTCCCCTGATGTTAATCGGGTCTTGATTCGCTTGACGCTGCTG` on GST-Aq-NF-kB (Amphimedon queenslandica, UniProt A9Y5G7 2-389)? 5.81

====

# ASSAY SYSTEM: GST-Nv-NF-kB (Ser allele) (Nematostella vectensis, UniProt A7UNT2 2-411)
# Sequence: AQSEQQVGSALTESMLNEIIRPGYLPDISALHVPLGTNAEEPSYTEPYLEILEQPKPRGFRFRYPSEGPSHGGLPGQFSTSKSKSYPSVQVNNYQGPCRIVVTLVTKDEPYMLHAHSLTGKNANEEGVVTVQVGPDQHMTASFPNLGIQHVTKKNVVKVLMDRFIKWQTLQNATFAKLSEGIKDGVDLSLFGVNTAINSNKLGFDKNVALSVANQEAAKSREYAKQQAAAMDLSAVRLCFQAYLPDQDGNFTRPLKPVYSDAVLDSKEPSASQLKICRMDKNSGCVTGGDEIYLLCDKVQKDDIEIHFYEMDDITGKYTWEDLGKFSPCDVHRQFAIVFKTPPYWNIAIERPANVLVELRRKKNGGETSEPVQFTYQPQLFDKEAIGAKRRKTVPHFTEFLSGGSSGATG
# METHOD SUMMARY: protein-binding microarray (PBM); PBM: ~300 nM protein, 6 mM HEPES pH 7.8, 80 mM KCl, 0.5 mM EDTA, 0.5 mM EGTA, 6% glycerol, 35 ng/ul poly-dIdC, 1% milk, 1 h, room temperature; Ap Aiptasia and Nv Nematostella (sea anemones) / Co Capsaspora / Aq Amphimedon (sponge) / Dm Drosophila / Hu human; RHD is the Rel homology domain; high values mean tight binding
# ASSAY CONDITIONS: dsDNA, one strand shown
Binary classification by binding signal, with 6 z-score as an inclusive lower bound for 1 (yes); all other cases are 0 (no).

Solved entries:
[
  {
    "RESIDUE SEQUENCE": "CCGATTAACATCAGGGGGGGGACTGATGTTAATCGGGTCTTGATTCGCTTGACGCTGCTG",
    "ASSIGNED LABEL": "0 (no)"
  },
  {
    "RESIDUE SEQUENCE": "CCGATTAACATCAGTGGGAAACATGATGTTAATCGGGTCTTGATTCGCTTGACGCTGCTG",
    "ASSIGNED LABEL": "0 (no)"
  }
]

Record `CCGATTAACATCAGGGAAACTACTGATGTTAATCGGGTCTTGATTCGCTTGACGCTGCTG` ; criterion: binding signal no lower than 6 z-score. Met? 0 (no)

Record `CCGATTAACATCAGGGGGAGGAATGATGTTAATCGGGTCTTGATTCGCTTGACGCTGCTG` ; criterion: binding signal no lower than 6 z-score. Met? 1 (yes)

Record `CCGATTAACATCAGGGAAATCTATGATGTTAATCGGGTCTTGATTCGCTTGACGCTGCTG` ; criterion: binding signal no lower than 6 z-score. Met? 1 (yes)

Record `CCGATTAACATCACATAATCCCCTGATGTTAATCGGGTCTTGATTCGCTTGACGCTGCTG` ; criterion: binding signal no lower than 6 z-score. Met? 1 (yes)

Record `CCGATTAACATCAGAATTACCCCTGATGTTAATCGGGTCTTGATTCGCTTGACGCTGCTG` ; criterion: binding signal no lower than 6 z-score. Met? 0 (no)

Record `CCGATTAACATCAAATAGTCCCCTGATGTTAATCGGGTCTTGATTCGCTTGACGCTGCTG` ; criterion: binding signal no lower than 6 z-score. Met? 1 (yes)

Record `CCGATTAACATCAGGGGGTACAATGATGTTAATCGGGTCTTGATTCGCTTGACGCTGCTG` ; criterion: binding signal no lower than 6 z-score. Met? 0 (no)
